- MEASUREMENT_TARGET: GST-NbGlk1(82-244) (Nicotiana benthamiana)
- Chain: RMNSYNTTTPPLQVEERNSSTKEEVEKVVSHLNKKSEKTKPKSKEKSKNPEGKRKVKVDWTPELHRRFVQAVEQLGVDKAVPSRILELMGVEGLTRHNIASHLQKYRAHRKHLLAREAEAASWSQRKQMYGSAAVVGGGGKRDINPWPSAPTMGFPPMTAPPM
- TEST_PROTOCOL: protein-binding microarray; high values mean tight binding
- APPLIED_CONDITIONS: protein: recombinant; tags: GST (pTH6838); dsDNA, one strand shown
Whole data set: some 16,000 sequences, median “e-score” near -0.044, cut for the highest 2% near 0.38. The sample as a whole holds a higher share of the highest values than the screen did.
Attribute: binding signal
Please state the figure in E-score; there is no need to write the unit.

Here are 5 sequences together with their reported answers.
| SEQUENCE_INPUT | MEASURED_PROPERTY | RECORDED_NUMBER |
| --- | --- | --- |
| ACATATCC | binding signal | 0.214 |
| AAATATCA | binding signal | 0.367 |
| AAATATCG | binding signal | 0.375 |
| ATATCCAC | binding signal | 0.393 |
| ATTGCGCA | binding signal | 0.301 |

As a next step, examine the sequence that follows.
**Q:** Please tell me: binding signal of AGTAAAAT , system GST-NbGlk1(82-244) (Nicotiana benthamiana)?
**A:** 0.292

----------
- MEASUREMENT_TARGET: GST-NbGlk1(82-244) (Nicotiana benthamiana)
- Chain: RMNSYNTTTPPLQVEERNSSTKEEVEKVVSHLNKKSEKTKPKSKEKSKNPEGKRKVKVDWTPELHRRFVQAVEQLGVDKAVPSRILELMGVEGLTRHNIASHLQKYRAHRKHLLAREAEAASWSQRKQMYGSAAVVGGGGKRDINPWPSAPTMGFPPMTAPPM
- TEST_PROTOCOL: protein-binding microarray; high values mean tight binding
- APPLIED_CONDITIONS: protein: recombinant; tags: GST (pTH6838); dsDNA, one strand shown
The full ranking holds about 16,000 sequences; the median of “e-score” is about -0.044, and the highest 2% start at about 0.38. This excerpt belongs to a sample that is enriched for the highest values.
Label fulfilled for high-side binding signal (at or above 0.3 E-score) and not fulfilled for low-side binding signal (below it).

| SEQUENCE_INPUT | CAT |
| --- | --- |
| ATTACACG | not fulfilled |
| ATTACTTA | not fulfilled |
| ACCTAGAT | not fulfilled |

We next turn to a different sequence, shown below.
**Q:** Decide: binding signal of AATCATCT >= 0.3 E-score?
**A:** not fulfilled

----------
- MEASUREMENT_TARGET: GST-NbGlk1(82-244) (Nicotiana benthamiana)
- Chain: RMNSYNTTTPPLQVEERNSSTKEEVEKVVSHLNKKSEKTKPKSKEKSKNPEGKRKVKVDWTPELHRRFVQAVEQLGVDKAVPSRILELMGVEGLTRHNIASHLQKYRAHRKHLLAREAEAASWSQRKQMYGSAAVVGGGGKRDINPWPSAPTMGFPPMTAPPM
- TEST_PROTOCOL: protein-binding microarray; high values mean tight binding
- APPLIED_CONDITIONS: protein: recombinant; tags: GST (pTH6838); dsDNA, one strand shown
In all, about 16,000 sequences were measured (“e-score”: median about -0.044, highest 2% from about 0.38 on). The list comes from a sample in which the highest values are over-represented; it also holds close analogues and randomly drawn sequences.
Attribute: binding signal
Hi, when you answer, please include the unit after the number. Thanks!

Here are 5 sequences together with their reported answers.
| SEQUENCE_INPUT | binding signal |
| --- | --- |
| AATGATTC | 0.22 E-score |
| AATTCTAT | 0.22 E-score |
| AATCCTCC | 0.375 E-score |
| ACGATTCT | 0.362 E-score |
| AAAAATCT | 0.45 E-score |

**Q:** Please tell me: binding signal of AGCAATCC , system GST-NbGlk1(82-244) (Nicotiana benthamiana)?
**A:** 0.412 E-score

**Q:** Please tell me: binding signal of AGGATTAC , system GST-NbGlk1(82-244) (Nicotiana benthamiana)?
**A:** 0.449 E-score

**Q:** Please tell me: binding signal of ATCTGAGC , system GST-NbGlk1(82-244) (Nicotiana benthamiana)?
**A:** 0.219 E-score

**Q:** Please tell me: binding signal of ATTTCGTA , system GST-NbGlk1(82-244) (Nicotiana benthamiana)?
**A:** 0.399 E-score

**Q:** Please tell me: binding signal of AAAAATAT , system GST-NbGlk1(82-244) (Nicotiana benthamiana)?
**A:** 0.3 E-score

**Q:** Please tell me: binding signal of AATTAGAT , system GST-NbGlk1(82-244) (Nicotiana benthamiana)?
**A:** 0.224 E-score

**Q:** Please tell me: binding signal of ACATAGAT , system GST-NbGlk1(82-244) (Nicotiana benthamiana)?
**A:** 0.223 E-score

**Q:** Please tell me: binding signal of AGTAATCC , system GST-NbGlk1(82-244) (Nicotiana benthamiana)?
**A:** 0.369 E-score

**Q:** Please tell me: binding signal of AGAAATCG , system GST-NbGlk1(82-244) (Nicotiana benthamiana)?
**A:** 0.338 E-score

**Q:** Please tell me: binding signal of AGAAATCT , system GST-NbGlk1(82-244) (Nicotiana benthamiana)?
**A:** 0.465 E-score

**Q:** Please tell me: binding signal of CAAAATCG , system GST-NbGlk1(82-244) (Nicotiana benthamiana)?
**A:** 0.386 E-score

**Q:** Please tell me: binding signal of AAATACGT , system GST-NbGlk1(82-244) (Nicotiana benthamiana)?
**A:** 0.267 E-score

----------
- MEASUREMENT_TARGET: GST-NbGlk1(82-244) (Nicotiana benthamiana)
- Chain: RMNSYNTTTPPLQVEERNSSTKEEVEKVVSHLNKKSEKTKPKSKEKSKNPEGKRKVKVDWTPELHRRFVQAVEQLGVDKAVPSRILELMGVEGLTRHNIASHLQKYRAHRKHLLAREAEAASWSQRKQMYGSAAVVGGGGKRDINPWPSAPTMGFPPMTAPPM
- TEST_PROTOCOL: protein-binding microarray; high values mean tight binding
- APPLIED_CONDITIONS: protein: recombinant; tags: GST (pTH6838); dsDNA, one strand shown
Over roughly 16,000 sequences, “e-score” has its median near -0.044; the highest 2% begin near 0.38. What follows is part of a selection rich in the highest values, with near analogues and random picks from the rest.
Label yes for high-side binding signal (at or above 0.3 E-score) and no for low-side binding signal (below it).

Some solved cases for reference:
| SEQUENCE_INPUT | CAT |
| --- | --- |
| ATTCTCAA | yes |
| ATATCCTG | yes |
| CAAATCGA | no |

**Q:** Decide: binding signal of AAGATCCT >= 0.3 E-score?
**A:** yes

**Q:** Decide: binding signal of AATCTCAC >= 0.3 E-score?
**A:** yes

**Q:** Decide: binding signal of AAATCTAC >= 0.3 E-score?
**A:** yes

**Q:** Decide: binding signal of ATATCGTG >= 0.3 E-score?
**A:** yes

**Q:** Decide: binding signal of ATATCTGC >= 0.3 E-score?
**A:** yes

**Q:** Decide: binding signal of ATAGGAAT >= 0.3 E-score?
**A:** no

**Q:** Decide: binding signal of AGAATTTC >= 0.3 E-score?
**A:** no

**Q:** Decide: binding signal of ATCCTGAG >= 0.3 E-score?
**A:** no

----------
Attribute: binding signal
- MEASUREMENT_TARGET: GST-NbGlk1(82-244) (Nicotiana benthamiana)
- Chain: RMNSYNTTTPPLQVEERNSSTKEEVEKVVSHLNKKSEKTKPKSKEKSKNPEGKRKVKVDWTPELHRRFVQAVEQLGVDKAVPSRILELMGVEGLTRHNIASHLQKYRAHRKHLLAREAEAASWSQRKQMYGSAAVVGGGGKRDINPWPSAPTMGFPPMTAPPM
- TEST_PROTOCOL: protein-binding microarray; NbGlk1 is a Golden2-like transcription factor of Nicotiana benthamiana; high values mean tight binding
- APPLIED_CONDITIONS: protein: recombinant; tags: GST (pTH6838); dsDNA, one strand shown
Over roughly 16,000 sequences, “e-score” has its median near -0.044; the highest 2% begin near 0.38. What follows is part of a selection rich in the highest values, with near analogues and random picks from the rest.
Please state the figure in E-score; there is no need to write the unit.

**Q:** Please report the recorded binding signal for AGATAGAT .
**A:** 0.267

**Q:** Please report the recorded binding signal for ATTTCGGC .
**A:** 0.283

**Q:** Please report the recorded binding signal for AAAATAAA .
**A:** 0.218
